- targetOrSystem: DRB1*0101 (Homo sapiens, UniProt P01903+P01911, A100R/D57E/F55L/F60I/F76Y/I96L/L162R/M171V/P40L/Q125E/R42F/V115G/Y59C)
- Construct: made in house; host or cells: EBV-transformed homozygous human B cell lines, transfected fibroblasts or single-allele 721.221 transfectants
- assayProcedure: biochemical
- Format: binding
- testContext: IC50 nM to purified HLA DRB1*0101
Parameter: IC50. Scope: all listed entries.

In the examples that follow, each entry is paired with its recorded IC50.
[
  {
    "smilesCode": "CC[C@H](C)[C@H](NC(=O)[C@H](CCSC)NC(=O)[C@H](CS)NC(=O)[C@H](CC(=O)O)NC(=O)[C@H](CCC(=O)O)NC(=O)[C@H](CCC(N)=O)NC(=O)[C@H](CO)NC(=O)[C@H](Cc1ccccc1)NC(=O)[C@@H](NC(=O)[C@H](CCSC)NC(=O)[C@H](C)N)C(C)C)C(=O)N[C@@H](CCCCN)C(=O)N[C@@H](C)C(=O)N[C@H](C(=O)N[C@@H](CCCNC(=N)N)C(=O)O)C(C)C",
    "measurementType": "IC50",
    "result": "11000 nM"
  },
  {
    "smilesCode": "CSCC[C@H](NC(=O)[C@H](CC(C)C)NC(=O)[C@@H](NC(=O)[C@H](CCCNC(=N)N)NC(=O)[C@H](Cc1c[nH]cn1)NC(=O)[C@@H]1CCCN1C(=O)[C@H](CO)NC(=O)[C@H](CCCNC(=N)N)NC(=O)[C@H](CC(=O)O)NC(=O)[C@H](CCCCN)NC(=O)[C@@H](NC(=O)[C@@H](NC(=O)CNC(=O)[C@@H](N)CC(N)=O)[C@@H](C)O)C(C)C)[C@@H](C)O)C(=O)N[C@@H](CO)C(=O)O",
    "measurementType": "IC50",
    "result": "581 nM"
  }
]

Then there is this molecule:
Given CC[C@H](C)[C@H](N)C(=O)N[C@@H](CC(C)C)C(=O)N[C@@H](CO)C(=O)N[C@H](C(=O)N[C@@H](Cc1ccc(O)cc1)C(=O)N[C@@H](CO)C(=O)N[C@H](C(=O)N[C@H](C(=O)N[C@@H](C)C(=O)N[C@@H](CO)C(=O)N[C@@H](CO)C(=O)N[C@@H](CC(C)C)C(=O)N[C@@H](C)C(=O)N[C@@H](CC(C)C)C(=O)N[C@@H](C)C(=O)N[C@H](C(=O)O)[C@@H](C)CC)C(C)C)[C@@H](C)O)[C@@H](C)CC , state its recorded IC50.
11 nM
